- Tested Target: hERG (KCNH2) (Homo sapiens)
- Sequence (Q12809 whole entry): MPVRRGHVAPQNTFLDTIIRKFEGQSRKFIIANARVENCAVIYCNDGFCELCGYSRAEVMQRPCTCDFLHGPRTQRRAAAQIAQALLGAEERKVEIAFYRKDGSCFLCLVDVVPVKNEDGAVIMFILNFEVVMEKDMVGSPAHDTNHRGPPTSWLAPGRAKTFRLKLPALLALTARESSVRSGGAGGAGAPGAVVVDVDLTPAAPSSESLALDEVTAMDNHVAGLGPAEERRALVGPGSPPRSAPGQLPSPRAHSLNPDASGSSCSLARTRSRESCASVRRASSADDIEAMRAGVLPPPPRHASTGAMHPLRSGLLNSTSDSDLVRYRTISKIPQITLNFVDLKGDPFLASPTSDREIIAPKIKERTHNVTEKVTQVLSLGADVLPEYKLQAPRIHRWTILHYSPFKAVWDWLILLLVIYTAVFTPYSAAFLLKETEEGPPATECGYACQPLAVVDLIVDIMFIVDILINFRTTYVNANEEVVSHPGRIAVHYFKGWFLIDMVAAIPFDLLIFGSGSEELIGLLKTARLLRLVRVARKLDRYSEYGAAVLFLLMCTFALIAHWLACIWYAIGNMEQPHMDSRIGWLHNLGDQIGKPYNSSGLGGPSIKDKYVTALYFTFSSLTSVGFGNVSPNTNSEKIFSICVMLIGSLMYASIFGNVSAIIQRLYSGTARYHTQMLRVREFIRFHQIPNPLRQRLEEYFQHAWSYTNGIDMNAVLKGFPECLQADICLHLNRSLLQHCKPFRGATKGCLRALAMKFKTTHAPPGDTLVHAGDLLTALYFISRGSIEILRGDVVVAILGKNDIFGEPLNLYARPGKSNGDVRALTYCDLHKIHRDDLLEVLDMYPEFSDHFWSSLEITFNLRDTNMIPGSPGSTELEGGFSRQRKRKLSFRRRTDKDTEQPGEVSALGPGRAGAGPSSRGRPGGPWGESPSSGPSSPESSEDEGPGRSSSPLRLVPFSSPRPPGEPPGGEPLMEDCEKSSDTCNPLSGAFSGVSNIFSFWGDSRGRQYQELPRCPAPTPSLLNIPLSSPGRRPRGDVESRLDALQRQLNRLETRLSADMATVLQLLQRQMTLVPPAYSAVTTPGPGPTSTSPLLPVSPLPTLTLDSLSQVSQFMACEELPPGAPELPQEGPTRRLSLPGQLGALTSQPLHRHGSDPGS
- Run Description: Inhibition of hERG expressed in HEK293 cells at 10 uM incubated by patch clamp assay relative to control
- Assay type: toxicity, cell-based
- Condition Label: HEK293 cells that express hERG

Structure	inhibition at 10 µM / %
NCCCNc1nc(Nc2ccc3c(c2)CCCC3=O)ncc1C(F)(F)F	76.1
CS(=O)(=O)N1CCCc2cc(Nc3ncc(C(F)(F)F)c(NCCCN)n3)ccc21	64.2
CS(=O)(=O)N1Cc2ccc(Nc3ncc(C(F)(F)F)c(NCCCN)n3)cc2C1	23.2
CS(=O)(=O)N1CCc2cc(Nc3ncc(C(F)(F)F)c(NCCCN)n3)ccc21	39.5
CS(=O)(=O)N1CCc2cc(Nc3ncc(C(F)(F)F)c(NCCCN)n3)ccc2C1	36.1

* * *

- Tested Target: Serine/threonine-protein kinase pim-1 (Homo sapiens)
- Sequence (P11309 whole entry): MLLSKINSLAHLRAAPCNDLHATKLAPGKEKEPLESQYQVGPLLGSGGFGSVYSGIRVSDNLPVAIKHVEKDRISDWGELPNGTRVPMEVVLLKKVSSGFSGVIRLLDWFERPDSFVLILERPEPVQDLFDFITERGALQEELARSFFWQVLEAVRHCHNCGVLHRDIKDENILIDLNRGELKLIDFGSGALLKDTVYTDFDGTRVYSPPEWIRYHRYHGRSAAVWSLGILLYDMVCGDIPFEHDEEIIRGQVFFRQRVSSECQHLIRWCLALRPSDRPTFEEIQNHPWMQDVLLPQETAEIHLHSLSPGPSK

Structure	IC50
CS(=O)(=O)N1CCc2cc(Nc3ncc(C(F)(F)F)c(NCCCN)n3)ccc2C1	> 10 µM

* * *

Catalogue of compounds with associated IC50
- Tested Target: Serine/threonine-protein kinase Chk1 (Homo sapiens, UniProt O14757)
- Sequence (O14757 whole entry): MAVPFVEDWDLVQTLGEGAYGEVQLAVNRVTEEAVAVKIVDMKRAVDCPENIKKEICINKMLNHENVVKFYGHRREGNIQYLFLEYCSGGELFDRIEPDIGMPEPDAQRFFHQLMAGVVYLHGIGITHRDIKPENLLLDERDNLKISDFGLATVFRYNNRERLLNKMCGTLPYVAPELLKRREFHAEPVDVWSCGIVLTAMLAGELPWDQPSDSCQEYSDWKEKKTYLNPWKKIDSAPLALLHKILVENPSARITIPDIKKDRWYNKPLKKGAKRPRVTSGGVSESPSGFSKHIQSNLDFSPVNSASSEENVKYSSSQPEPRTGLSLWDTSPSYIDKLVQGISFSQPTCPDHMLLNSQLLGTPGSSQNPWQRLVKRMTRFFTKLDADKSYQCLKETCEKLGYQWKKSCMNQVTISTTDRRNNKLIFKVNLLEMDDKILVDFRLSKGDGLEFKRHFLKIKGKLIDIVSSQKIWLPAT

Structure	Unit Spec	IC50
CS(=O)(=O)N1Cc2ccc(Nc3ncc(C(F)(F)F)c(NCCCN)n3)cc2C1	nM	35.2
NCCCNc1nc(Nc2ccc3c(c2)CCN(S(=O)(=O)c2ccccc2)C3)ncc1C(F)(F)F	nM	133
NCCCNc1nc(Nc2ccc3c(c2)OCO3)ncc1C(F)(F)F	nM	237
NCCCNc1nc(Nc2ccc3c(c2)CCN(S(=O)(=O)C2CCCCC2)C3)ncc1C(F)(F)F	nM	100
NCCCNc1nc(Nc2ccc3c(c2)CCS3(=O)=O)ncc1C(F)(F)F	nM	104
